system: CHEAL (Chenopodium album); test: Preemergence herbicidal evaluation; format: in vivo, L.; details: Rate 0.2500 kg/ha; preemergence; rated 4-5 weeks after treatment
Listed here: items and their measured CHEAL preemergence herbicidal rating.
Answer as a number with no unit attached.

Consider the worked cases shown below.
C[C@@H]1O[C@@H]1c1nsc2ccc(-n3c(=O)cc(C(F)(F)F)n(C)c3=O)cc12 :: 9.0
C#CCOC(=O)COc1ccsc1-c1nsc2ccc(-n3c(=O)cc(C(F)(F)F)n(C)c3=O)cc12 :: 9.0
Cn1c(C(F)(F)F)cc(=O)n(-c2ccc3snc(-c4cccs4)c3c2)c1=O :: 9.0
Cc1csc(-c2nsc3ccc(-n4c(=O)cc(C(F)(F)F)n(C)c4=O)cc23)n1 :: 9.0
Cn1c(C(F)(F)F)cc(=O)n(-c2ccc3snc(C4OCCCS4)c3c2)c1=O (stereo not drawn) :: 9.0
Cn1c(C(F)(F)F)cc(=O)n(-c2ccc3snc(C4OCCS4)c3c2)c1=O (stereo not drawn) :: 9.0
Cc1cc(C)c(-c2nsc3ccc(-n4c(=O)cc(C(F)(F)F)n(C)c4=O)cc23)s1 :: 9.0
Cn1c(C(F)(F)F)cc(=O)n(-c2ccc3snc(-c4ccsc4)c3c2)c1=O :: 9.0

Next:
[in] Which measured CHEAL preemergence herbicidal rating value corresponds to COC(=O)COc1ccsc1-c1nsc2ccc(-n3c(=O)cc(C(F)(F)F)n(C)c3=O)cc12 ?
[out] 9.0

Attribution: patent US6706663B2
